Test system: Staphylococcus aureus
assaySummary: Antibacterial activity against methicillin- and quinolone-resistant Staphylococcus aureus ATCC700699 after 24 hrs by microdilution method
Type: functional
experimentalSetup: ATCC700699, 24 h
measuredAttribute: MIC (µg/mL)
Write the number in µg/mL without appending the unit.

Here is how some compounds turned out for MIC.
{"compound": "CNC(C)[C@@H]1CCN(c2c(F)cc3c(=O)c4c(=O)[nH]sc4n(C4CC4)c3c2OC)C1 (mixture of isomers)", "MIC (µg/mL)": 0.25}
{"compound": "COc1c(N2CC[C@@H](C(C)NC(C)C)C2)c(F)cc2c(=O)c3c(=O)[nH]sc3n(C3CC3)c12 (mixture of isomers)", "MIC (µg/mL)": 0.5}
{"compound": "COc1c(N2CC[C@@H](CN(C)C)C2)c(F)cc2c(=O)c3c(=O)[nH]sc3n(C3CC3)c12", "MIC (µg/mL)": 4}
{"compound": "CN[C@@H](C)[C@@H]1CCN(c2c(F)cc3c(=O)c4c(=O)[nH]sc4n(C4CC4)c3c2OC)C1 (mixture of isomers)", "MIC (µg/mL)": 0.25}
{"compound": "COc1c(N2CC[C@H](C(C)N)C2)c(F)cc2c(=O)c3c(=O)[nH]sc3n(C3CC3)c12 (mixture of isomers)", "MIC (µg/mL)": 1}
{"compound": "CN[C@H]1CCN(c2c(F)cc3c(=O)c4c(=O)[nH]sc4n(C4CC4)c3c2OC)C1", "MIC (µg/mL)": 2}
{"compound": "COc1c(N2CC[C@@H](C(C)NC3CCCC3)C2)c(F)cc2c(=O)c3c(=O)[nH]sc3n(C3CC3)c12 (mixture of isomers)", "MIC (µg/mL)": 4}
{"compound": "COc1c(N2CC[C@@H](C(C)(C)NCCF)C2)c(F)cc2c(=O)c3c(=O)[nH]sc3n(C3CC3)c12", "MIC (µg/mL)": 0.06}
{"compound": "COc1c(N2CC[C@@H]([C@H](C)NCCF)C2)c(F)cc2c(=O)c3c(=O)[nH]sc3n(C3CC3)c12 (mixture of isomers)", "MIC (µg/mL)": 0.13}
{"compound": "COc1c(N2CC[C@@H](C3(N)CC3)C2)c(F)cc2c(=O)c3c(=O)[nH]sc3n(C3CC3)c12", "MIC (µg/mL)": 0.06}

QUERY: Read off the recorded MIC for COc1c(N2CC[C@@H](CNC3CC3)C2)c(F)cc2c(=O)c3c(=O)[nH]sc3n(C3CC3)c12
RESULT: 0.06

QUERY: Read off the recorded MIC for COc1c(N2CC[C@@H](C(N)c3ccccn3)C2)c(F)cc2c(=O)c3c(=O)[nH]sc3n(C3CC3)c12 (mixture of isomers)
RESULT: 0.13

====

System: Staphylococcus aureus
assaySummary: Antibacterial activity against methicillin- and quinolone-resistant Staphylococcus aureus ATCC700699 after 24 hrs by microdilution method
Type: functional
experimentalSetup: ATCC700699, 24 h
Criterion: MIC strictly under 0.5 µg/mL. Met: 1.0. Not met: 0.0.

A selection of reference data follows.
{"molecule": "COc1c(N2C[C@@H]3CCCN[C@@H]3C2)c(F)cc2c(=O)c(C(=O)O)cn(C3CC3)c12 [MOXIFLOXACIN]", "groupLabel": 0.0}
{"molecule": "COc1c(N2CC[C@@H]([C@H](C)N)C2)c(F)cc2c(=O)c3c(=O)[nH]sc3n(C3CC3)c12 (mixture of isomers)", "groupLabel": 1.0}
{"molecule": "COc1c(N2CC[C@H](CN)C2)c(F)cc2c(=O)c3c(=O)[nH]sc3n(C3CC3)c12", "groupLabel": 1.0}
{"molecule": "COc1c(N2CC[C@H]([C@H](C)N)C2)c(F)cc2c(=O)c3c(=O)[nH]sc3n(C3CC3)c12", "groupLabel": 0.0}

QUERY: is_below(MIC, 0.5 µg/mL) for COc1c(N2CC[C@@H](C(C)(C)N)C2)c(F)cc2c(=O)c3c(=O)[nH]sc3n(C3CC3)c12 ?
RESULT: 1.0

====

Tested on: Staphylococcus aureus
assaySummary: Antibacterial activity against methicillin- and quinolone-resistant Staphylococcus aureus ATCC700699 after 24 hrs by microdilution method
Assay type: functional
experimentalSetup: ATCC700699, 24 h
measuredAttribute: MIC (µg/mL)
Write the number in µg/mL without appending the unit.

{"compound": "COc1c(N2CC[C@@H](C(C)N(C)C)C2)c(F)cc2c(=O)c3c(=O)[nH]sc3n(C3CC3)c12 (mixture of isomers)", "subjectOfTest": "Staphylococcus aureus", "MIC [µg/mL]": 1}

QUERY: Read off the recorded MIC for COc1c(N2CC[C@@H](C(N)c3ncco3)C2)c(F)cc2c(=O)c3c(=O)[nH]sc3n(C3CC3)c12 (mixture of isomers)
RESULT: 0.25

QUERY: Read off the recorded MIC for COc1c(N2CC[C@@H](C(C)(C)N(C)C)C2)c(F)cc2c(=O)c3c(=O)[nH]sc3n(C3CC3)c12
RESULT: 1

QUERY: Read off the recorded MIC for COc1c(N2CC[C@H](C(C)(C)N)C2)c(F)cc2c(=O)c3c(=O)[nH]sc3n(C3CC3)c12
RESULT: 2

QUERY: Read off the recorded MIC for COc1c(N2CC[C@H]([C@@H](C)N)C2)c(F)cc2c(=O)c3c(=O)[nH]sc3n(C3CC3)c12
RESULT: 1

QUERY: Read off the recorded MIC for COc1c(N2CC[C@H](C(C)NC3CC3)C2)c(F)cc2c(=O)c3c(=O)[nH]sc3n(C3CC3)c12 (mixture of isomers)
RESULT: 0.13

QUERY: Read off the recorded MIC for CN[C@@H]1CCN(c2c(F)cc3c(=O)c4c(=O)[nH]sc4n(C4CC4)c3c2OC)C1
RESULT: 4

QUERY: Read off the recorded MIC for COc1c(N2CC[C@@H]([C@H](C)N(C)C)C2)c(F)cc2c(=O)c3c(=O)[nH]sc3n(C3CC3)c12
RESULT: 0.5

QUERY: Read off the recorded MIC for O=c1[nH]sc2c1c(=O)c1cc(F)c(N3CCNCC3)cc1n2C1CC1
RESULT: 4

QUERY: Read off the recorded MIC for COc1c(N2CC[C@@H](C(C)NC3CC3)C2)c(F)cc2c(=O)c3c(=O)[nH]sc3n(C3CC3)c12 (mixture of isomers)
RESULT: 0.06

QUERY: Read off the recorded MIC for COc1c(N2CCC(C(C)(C)NC3CC3)C2)c(F)cc2c(=O)c3c(=O)[nH]sc3n(C3CC3)c12 (racemic)
RESULT: 0.25

QUERY: Read off the recorded MIC for CNC[C@@H]1CCN(c2c(F)cc3c(=O)c4c(=O)[nH]sc4n(C4CC4)c3c2OC)C1
RESULT: 0.5

QUERY: Read off the recorded MIC for CC[C@@H](NC)[C@@H]1CCN(c2c(F)cc3c(=O)c4c(=O)[nH]sc4n(C4CC4)c3c2OC)C1
RESULT: 2

QUERY: Read off the recorded MIC for COc1c(N2CC[C@@H](CNCCF)C2)c(F)cc2c(=O)c3c(=O)[nH]sc3n(C3CC3)c12
RESULT: 0.13

QUERY: Read off the recorded MIC for COc1c(N2CCC(CNCC(C)C)C2)c(F)cc2c(=O)c3c(=O)[nH]sc3n(C3CC3)c12 (racemic)
RESULT: 4

QUERY: Read off the recorded MIC for COc1c(N2CC[C@@H](CN)C2)c(F)cc2c(=O)c3c(=O)[nH]sc3n(C3CC3)c12
RESULT: 0.25

====

Tested on: Staphylococcus aureus
assaySummary: Antibacterial activity against methicillin- and quinolone-resistant Staphylococcus aureus ATCC700699 after 24 hrs by microdilution method
Type: functional
experimentalSetup: ATCC700699, 24 h
measuredAttribute: MIC (µg/mL)
Write the number in µg/mL without appending the unit.

QUERY: Read off the recorded MIC for COc1c(N2CC[C@@H](C(C)NCC3CC3)C2)c(F)cc2c(=O)c3c(=O)[nH]sc3n(C3CC3)c12 (mixture of isomers)
RESULT: 0.5

QUERY: Read off the recorded MIC for COc1c(N2CC[C@@H](C(N)c3nccs3)C2)c(F)cc2c(=O)c3c(=O)[nH]sc3n(C3CC3)c12 (mixture of isomers)
RESULT: 0.06

QUERY: Read off the recorded MIC for CNC(C)(C)[C@@H]1CCN(c2c(F)cc3c(=O)c4c(=O)[nH]sc4n(C4CC4)c3c2OC)C1
RESULT: 0.13

QUERY: Read off the recorded MIC for CC[C@H](NC)[C@@H]1CCN(c2c(F)cc3c(=O)c4c(=O)[nH]sc4n(C4CC4)c3c2OC)C1 (mixture of isomers)
RESULT: 0.5
